Values compiled from patent US20210388087A1.

- system-under-test: T1, Human CD137 ECD (human)
- T1 construct: entry includes C-terminal His-tag and biotin acceptor peptide; also called human CD137 extracellular domain; 4-1BB
- T1 sequence (chain, as listed by the source limits assumed): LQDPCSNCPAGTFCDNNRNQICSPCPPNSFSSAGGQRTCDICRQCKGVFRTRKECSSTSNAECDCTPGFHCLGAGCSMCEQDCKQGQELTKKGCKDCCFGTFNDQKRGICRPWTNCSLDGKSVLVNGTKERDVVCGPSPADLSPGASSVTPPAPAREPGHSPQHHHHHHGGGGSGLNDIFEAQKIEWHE
- assay-text: Biacore SPR, vs parent H183/L072
measured-property: fold change of affinity (fold)
Answer with a number only, understood to be in fold.

Short answer for H183/L072 VL T92K (antibody, name in Kabat numbering, V domains shown, Dual-Ig) VH: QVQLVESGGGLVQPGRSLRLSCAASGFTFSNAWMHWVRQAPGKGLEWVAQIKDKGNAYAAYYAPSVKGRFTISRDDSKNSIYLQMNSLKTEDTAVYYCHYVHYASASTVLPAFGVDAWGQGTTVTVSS VL: DIVMTQSPLSLPVTPGEPASISCQASQELVHMNRNTYLHWYQQKPGQAPRLLIYKVSNRFPGVPDRFSGSGSGTDFTLKISRVEAEDVGVYYCAQGKSVPFTFGQGTKLEIK : fold change of affinity was 0

Switching to the query record.
For reference, reported fold change of affinity for H183/L072 VL V51I (antibody, name in Kabat numbering, V domains shown, Dual-Ig) VH: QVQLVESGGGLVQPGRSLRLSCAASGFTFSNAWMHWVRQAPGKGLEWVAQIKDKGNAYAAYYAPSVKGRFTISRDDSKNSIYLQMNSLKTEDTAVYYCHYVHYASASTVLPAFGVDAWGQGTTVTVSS VL: DIVMTQSPLSLPVTPGEPASISCQASQELVHMNRNTYLHWYQQKPGQAPRLLIYKISNRFPGVPDRFSGSGSGTDFTLKISRVEAEDVGVYYCAQGTSVPFTFGQGTKLEIK stands at 0.6
